All values here come from patent US20230095569A1.

- test.target: mouse Claudine18.2 (mouse) (UniProt P56857)
- test.details: FACS on CHOK1-m18.2 cells
Criterion: FACS MFI meeting or surpassing 10000. Met: criterion met. Not met: criterion not met.

Example results:
Ab12 (antibody, V domains shown) VH: EVMLVESGGGLVKPGGSLKLSCAASGFTFSSYTMSWVRQTPEKRLEWVATIIGGYGNTYYADSVKGRFTISRDSAKNTLYLQMLSLRSEDTALYYCTRLGQTQRNAMDYWGQGTSVTVSS VL: DILMTQSPSSLSVSAGEKVTMSCKSSQSLLNSGNQRNYLAWYQQKPGQPPKLLIYGASTRESGVPDRFTGSGSGTDFTLTISSVQAEDLAVYYCQNDYYYPLTFGAGTKLELK = criterion met
Ab04 (antibody, V domains shown) VH: EVQLQQSGPELVKPGASVKMSCMASGYTFTDYNIHWVKRSHGSRLEWIGYISPISGGAGYNQKFMDKATLTVDKSSNTAYMELRSLTSEDSAVYYCTRGDYWGQGTTLTVSS VL: DIVMTQSPSSLAVTVGEKVTMSCKSSQSLLNSGNQKNYLTWYQQKPGQPPKLLIYWASTRKSGVPDRFTGSGSGTDFTLTISSVQAEDLGIYYCLNDYGFPLTFGAGSKLELK = criterion not met
Ab11 (antibody, V domains shown) VH: EVMLVESGGDLVKPGGSLKLSCAASGFTFSRYTMSWVRQTPEKRLEWVATVSVGSGNTYYLDSVKGRFTISRDNAKNTLFLQMNSLRSEDTALYYCTRLGQTQRNAVDYWGQGTSVTVSS VL: DIVMTQSPSFLSVSAGEKVTMSCKSSQSLFNGGNQKNYLAWYQQKPGQPPKLLIYGASTRDSGVPDRFTGSGSGTDFTLTISNVQAEDLAIYFCQNDHSFPLTFGAGTKLELK = criterion met
Ab15 (antibody, V domains shown) VH: EVMLVESGGDLVKPGGSLKLSCAASGFTFSTYTMSWVRQTPEKRLEWVATIVGGGGYTYYLDSVKGRFTISRDNAKNTLYLQMISLRSEDTALYYCARMGLTQRNALDYWGQGTSITVSS VL: DIVMTQSPSSLSVSEGEKVTLNCKSSQSLFNSGNQKNYLAWYQQKPGQPPKLLIYGASTRESGVPDRFTGSGFGTDFTLTISSVQAEDLAVYYCQNDHTYPLTFGAGAKLELK = criterion met
Ab24 (antibody, V domains shown) VH: EVKLVESGGGLVKPGGSLKLSCAGSGFTFSSYTMSWVRQTPEKRLEWVATITIGVNIYYLDSVKGRFTISRDNAKNTLYLQMNSLRSEDTALYYCTRLGQTQRNAMDYWGQGTSVTVSS VL: DIVMTQSPTSLSVSAGEKVTMTCKSSQSLFNSGNQKNYLAWYQEKPGQPPKLLIYGASTRESGVPDRFTGSGSGTDFTLTISSVQAEDLAVYYCQNVHFYPFTFGAGTKLEL = criterion met

Answer whether FACS MFI of Ab27 (antibody, V domains shown) VH: QVQLQQSGAELVRPGSSVKISCKASGYAFSNYWMNWVKQRPGQGLEWIGQIYPGNGDTNYNGKFKGKATLTADKSSTTAYIQLSSLTSEDSAVYFCTRIYYGNSFAYWGQGTLVTVS VL: DIVMTQSPSSLTVTAGERVTMSCKSSQSLLNSGNQKNYLTWYQQKPGQPPKLLIYWASTRESGVPDRFTGSGSGTDFTLTISRVQAQDLAVYYCQNDYYYPLTFGAGTKLELK is greater than or equal to 10000.
criterion not met

Answer whether FACS MFI of Ab07 (antibody, V domains shown) VH: EVQLQQSGPELVKPGASVKISCKASGYSFTDYFMNWVKQSHGKGLEWIGRINPYNGDTFYNQKFKGKATLTVDKSSSTAHMELLSLTSEDFAVYYCALYDGYWGAFVYWGQGTLVTVSA VL: DIQMTQSPASLSVFVGETVTITCRASENIYSNLAWYQQKQGKSPQLLVYAATNLADGVPSRFSGSGSGTQYSLKINSLQSEDFGSYYCQHFWGTPLTFGAGTKLELK is greater than or equal to 10000.
criterion met

Answer whether FACS MFI of Ab21 (antibody, V domains shown) VH: EVMLVESGGGLVKPGGSLKLSCAASGFTFSSYTMSWVRQTPEKRLEWVATIIGGYGNTYYVDSVKGRFTISRDSAKNTLYLQMISLRSEDTALYYCTRLGQTQRNAMDYWGQGTSVTVSS VL: DILMTQSPSSLSVSAGEKVTMSCKSSQSLLNSGNQKNYLAWYQQKPGQPPKLLIYGASTRESGVPDRFTGSGSGTDFTLTISSVQAEDLAVYYCQNDYYYPFTFGAGTKLEL is greater than or equal to 10000.
criterion met

Answer whether FACS MFI of Ab18 (antibody, V domains shown) VH: QVQLKESGPGLVAPSQSLSITCTVSGFSLTTYGINWVRQPPGKGLEWLGVIWGDGSTNYHSALISRLSISKDNSKSQVFLKLNSLQTDDTATYYCVKSSYYGNAMDYWGQGTSVTVSS VL: DIVMTQSPSSLTVTAGETVTMSCKSSQSLLNSGNQKNYLTWYQQKPGQPPKLLIYWASTRESGVPDRFTGSGSGTDFTLTISSVQAEDLAVYYCQNVYSYPFTFGSGTKLEI is greater than or equal to 10000.
criterion met

Answer whether FACS MFI of Ab29 (antibody, V domains shown) VH: EVLLQQSGPELVKPGASVKIPCKASGYTLTDHSMDWVKQSHGKSLEWIGNILPNNGGNIYNQKFRGKATLTVDKSSSTAYMELRSLTSEDTAVYNCARGHYGNSFAYWGQGTLVIVS VL: DIVMTQSPSSLTVRAGEKVTIYCKSSQSLFNSGNQKNYLTWYQQKPGQPPKLLIYWASTRESGVPHRFTGSGSGTDFTLTISSMQADDLATYYCQNGYFFPYTFGGGTKLEIK is greater than or equal to 10000.
criterion met
